# experiment: Metabolic stability in mouse liver microsomes
# Type: in vitro ADME
# particulars: U, extremely unstable
endpoint label: MLM t1/2 (min)
The answer is to be given in min; state only the numeric part.

Reported MLM t1/2 of COc1cc(-c2nc3ccc(C(=O)NCCCN4CCN(c5ccccc5)CC4)cc3n2C2CCC2)cc(OC)c1OC : 6.3

Reported MLM t1/2 of CNC(=O)[C@H]1C[C@H](n2c(-c3ccc(OC)c(OC)c3)nc3ccc(C(=O)NCCCN4CCN(c5cccc(C)c5C)CC4)cc32)C1 : 3.7

Reported MLM t1/2 of CNC(=O)[C@H]1C[C@H](n2c(-c3cc(F)cc(OC)c3)nc3ccc(C(=O)NCCCN4CCN(c5ccccc5)CC4)cc32)C1 : 7.1

Reported MLM t1/2 of CNC(=O)[C@H]1C[C@H](n2c(-c3cc(OC)c(OC)c(OC)c3)nc3ccc(C(=O)NCCCN(C)C)cc32)C1 : 807

Reported MLM t1/2 of COc1cc(-c2nc3ccc(C(=O)NCC4(O)CCN(Cc5ccccc5)CC4)cc3n2C2CCC2)cc(OC)c1OC : 2.9

----------
# experiment: Metabolic stability in human liver microsomes
# Format: in vitro ADME
# particulars: U, extremely unstable
Reported values of HLM t1/2 for individual entries
Put your answer as a value accompanied by its unit after it.

Reported HLM t1/2 of CNC(=O)[C@H]1C[C@H](n2c(-c3ccc(OC)c(OC)c3)nc3ccc(C(=O)NCCCN4CCN(c5cccc(C)c5C)CC4)cc32)C1 [CDD-2421] : 6.0 min

Reported HLM t1/2 of COc1cc(-c2nc3ccc(C(=O)NCCCN4CCN(c5ccccc5)CC4)cc3n2C2CCC2)cc(OC)c1OC [CDD-2315] : 7.8 min

Reported HLM t1/2 of COc1cc(-c2nc3ccc(C(=O)NCC4(O)CCN(Cc5ccccc5)CC4)cc3n2C2CCC2)cc(OC)c1OC [CDD-2795] : 17.0 min

Reported HLM t1/2 of CNC(=O)[C@H]1C[C@H](n2c(-c3cc(OC)c(OC)c(OC)c3)nc3ccc(C(=O)NCCCN(C)C)cc32)C1 [CDD-2281] : 769 min

Reported HLM t1/2 of CNC(=O)[C@H]1C[C@H](n2c(-c3cc(F)cc(OC)c3)nc3ccc(C(=O)NCCCN4CCN(c5ccccc5)CC4)cc32)C1 [CDD-2340] : 24.4 min

----------
Reported values of Solubility for individual entries
# experiment: Dynamic solubility assay
# Type: physicochemical
The answer is to be given in µM; state only the numeric part.

[
  {
    "chemical string": "CNC(=O)[C@H]1C[C@H](n2c(-c3cc(F)cc(OC)c3)nc3ccc(C(=O)NCCCN4CCN(c5ccccc5)CC4)cc32)C1",
    "observed": 121.8
  },
  {
    "chemical string": "COc1cc(-c2nc3ccc(C(=O)NCC4(O)CCN(Cc5ccccc5)CC4)cc3n2C2CCC2)cc(OC)c1OC",
    "observed": 141.5
  },
  {
    "chemical string": "COc1cc(-c2nc3ccc(C(=O)NCCCN4CCN(c5ccccc5)CC4)cc3n2C2CCC2)cc(OC)c1OC",
    "observed": 63.5
  },
  {
    "chemical string": "CNC(=O)[C@H]1C[C@H](n2c(-c3cc(OC)c(OC)c(OC)c3)nc3ccc(C(=O)NCCCN(C)C)cc32)C1",
    "observed": 199.6
  }
]

Reported Solubility of CNC(=O)[C@H]1C[C@H](n2c(-c3ccc(OC)c(OC)c3)nc3ccc(C(=O)NCCCN4CCN(c5cccc(C)c5C)CC4)cc32)C1 : 44.8
